Could you please report measured CC50 for the items listed next?
# MEASUREMENT DESCRIPTION: in vitro
# TEST CONDITIONS: EBOV CC50
Numbers only, in µM.

[[record]]
smiles_str = "CCOc1ccc2nc(C)cc(Nc3ccc(C)c(Cl)c3)c2c1"
readout_name = "CC50"
units_of_measure = "µM"
measured = 25.3

[[record]]
smiles_str = "c1ccc2cc(Nc3c4ccccc4nc4ccccc34)ccc2c1"
readout_name = "CC50"
units_of_measure = "µM"
measured = 47.6

[[record]]
smiles_str = "COC(=O)c1ccc2nc(C)cc(Nc3cccc(O)c3)c2c1"
readout_name = "CC50"
units_of_measure = "µM"
measured = 72.3

[[record]]
smiles_str = "CCOC(=O)c1cnc2c(OC)cccc2c1NCc1ccco1"
readout_name = "CC50"
units_of_measure = "µM"
measured = 29.9

[[record]]
smiles_str = "COc1cccc2c(Nc3cccc([N+](=O)[O-])c3)cc(C)nc12"
readout_name = "CC50"
units_of_measure = "µM"
measured = 22.9

[[record]]
smiles_str = "COc1cccc2c(Nc3ccc4c(c3)OCCO4)cc(C)nc12"
readout_name = "CC50"
units_of_measure = "µM"
measured = 57.2

[[record]]
smiles_str = "CCc1ccccc1Nc1c2ccccc2nc2ccccc12"
readout_name = "CC50"
units_of_measure = "µM"
measured = 32.9

[[record]]
smiles_str = "Cc1ccc2nc(C)cc(N3CCC(C)CC3)c2c1"
readout_name = "CC50"
units_of_measure = "µM"
measured = 72.9

[[record]]
smiles_str = "CCOc1ccc2nc(C)cc(Nc3cc(Cl)ccc3OC)c2c1"
readout_name = "CC50"
units_of_measure = "µM"
measured = 18.7

[[record]]
smiles_str = "Cc1ccc2nc3c(c(Nc4ccc(N5CCOCC5)cc4)c2c1)CCC3"
readout_name = "CC50"
units_of_measure = "µM"
measured = 44.8


Would you mind giving CC50 for every compound in the list below?
1. Cc1cc(C)c2nc(C)cc(NCc3ccco3)c2c1
2. CCOc1ccc2nc(C)cc(Nc3ccc(OCc4ccccc4Cl)cc3)c2c1

Result:
[50.2, 25.6]

====

# MEASUREMENT DESCRIPTION: in vitro
# TEST CONDITIONS: RSV CC50
Quick rule for you: CC50 under 60 µM gets Y, anything else gets N.

Illustrative cases are given below, each with its answer.
[[record]]
compound = "Cc1ccc2nc(C)cc(N3CCC(C)CC3)c2c1 [Compound 15]"
class_assignment = "N"

[[record]]
compound = "COC(=O)c1ccc(Nc2cc(C)nc3c(C)cccc23)cc1 [Compound 61]"
class_assignment = "Y"

[[record]]
compound = "CCc1ccccc1Nc1cc(C)nc2c(OC)cccc12 [Compound 24]"
class_assignment = "Y"

[[record]]
compound = "C=CCNc1c2c(nc3ccccc13)CCC2 [Compound 12]"
class_assignment = "N"

[[record]]
compound = "CCOc1ccc2nc(C)cc(Nc3ccc(OCc4ccccc4Cl)cc3)c2c1 [Compound 42]"
class_assignment = "Y"

[[record]]
compound = "CCOC(=O)c1cnc2ccc(OCC)cc2c1Nc1ccc(I)cc1 [Compound 32]"
class_assignment = "N"


Request: API: query returns whether the compound falls strictly under 60 µM in CC50. Query: CCCOC(=O)c1ccc(Nc2cc(C)nc3ccc(C(=O)OCC)cc23)cc1 [Compound 63]
Result: N

Request: Say whether its CC50 is strictly beneath 60 µM. Entry: CCOc1ccc2nc(C)cc(Nc3cc(Cl)ccc3OC)c2c1 [Compound 58]
Result: Y

Request: Take the compound CCOC(=O)c1cnc2ccccc2c1NCc1ccco1 [Compound 30] and say whether its CC50 is less than 60 µM.
Result: Y

Request: Bench note: check whether CCOC(=O)c1ccc2ncc(C(=O)OCC)c(NCc3ccco3)c2c1 [Compound 13] shows CC50 below 60 µM
Result: Y
